Assay: compound fluorescence in toxin protease inhibitor counterscreen, primary screen, artefact control for toxin protease inhibitor project, biochemical, multiplex microsphere, HTS (AID 624483)
Settings: compound autofluorescence counterscreen, microsphere flow cytometry; stronger effect = higher value
The campaign covered roughly 360,000 compounds. About 11,000 (3.1%) were called active. Inconclusive results (about 2%) are left out. The full list was thinned out, with actives kept by preference.
Listed here are compounds together with their documented fluorescence intensity.
Attribute measured: fluorescence intensity

>>> print(df.to_string())
                                   compound      attribute_measured  measurement
0  O=C1C2(c3ccccc3)CN(CCCO)CC1(c1ccccc1)CN(CCCO)C2  fluorescence intensity        10600
1    O=C(Nc1ccccc1C(=O)N1CCCCCC1)c1ccccc1Cl  fluorescence intensity         6360
2  CC1(C)C(C=C(Cl)Cl)C1C(=O)NC(O)C(=O)c1ccccc1 (stereo not given)  fluorescence intensity         3770
3   Nc1nc2c(Br)ccc(Br)c2cc1C(=O)NCCc1ccccc1  fluorescence intensity         6050
4  COCCCNC(=O)c1cccc2c(-c3ccc(O)c(OC)c3)coc12  fluorescence intensity         3660
5  COC(=O)CN1C(=O)C2(C(C(=O)OC)=C(N)Oc3ccccc32)C2=C1CC(C)(C)CC2=O (stereo not given)  fluorescence intensity        23500
6   COc1ccc(NC(=O)CSc2nc3ccccc3c(=O)n2C)cc1  fluorescence intensity         3680
7  COc1cccc(NC(=O)CCc2nnc3ccc(N4CCC(C)CC4)nn23)c1  fluorescence intensity         5600
8  CSCCC(c1nnnn1Cc1ccccc1)N1CCN(C/C=C/c2ccccc2)CC1 (stereo not given)  fluorescence intensity         6070
9  CCCNC(=O)c1cc(C2CCCCN2C(=O)OC)on1 (stereo not given)  fluorescence intensity         3000

====

Experiment: compound fluorescence in toxin protease inhibitor counterscreen, primary screen, artefact control for toxin protease inhibitor project, biochemical, multiplex microsphere, HTS (AID 624483)
Settings: compound autofluorescence counterscreen, microsphere flow cytometry
The whole screen tested about 360,000 compounds, of which about 11,000 (3.1%) were called active. About 2% were inconclusive and are not listed. Cut-off read from the data, not from the text of the source: active = fluorescence intensity above about 16000; inconclusive = no clear call, values can overlap the other calls; inactive = below that. Many of the other results were omitted from the sample, so actives are more common in it than they were.
Labels: yes (1) (active), no (0) (inactive)

>>> df
                                    compound    group
 0  CCOC(=O)C1CCN(C(c2cc3cc(C)cc(C)c3[nH]c2=O)c2nnnn2C2CCCCC2)CC1 (stereo unspecified)   no (0)
 1  CCc1oc(-c2ccc(OC)cc2)c(C(=O)OCCCCCO)c1C(C)OCCO (stereo unspecified)   no (0)
 2  CC(=O)Nc1cc(-c2ccc(N3CCN(C)CC3)cc2)cn2c(-c3cccc(C(=O)N(C)C)c3)cnc12   no (0)
 3          C=CCn1c(C)cc(C2=NNC(=NCC)SC2)c1C   no (0)
 4  COc1ccc(C(=O)NCCc2ccc(S(N)(=O)=O)cc2)cc1OC  yes (1)
 5            C#CCSc1nnc(-c2sc3ccccc3c2Cl)o1  yes (1)
 6  CC(C)COP(=O)(c1ccc(N(C)C)cc1)C(Nc1ccccc1)c1cccnc1 (stereo unspecified)   no (0)
 7  COCCn1c(SCC(=O)Nc2cc(Cl)ccc2OC)nc2c(c1=O)SC(C)C2 (stereo unspecified)   no (0)
 8  Cc1ccc(-n2c(C)cc(C(=O)CSc3nnc4ccccn34)c2C)cc1   no (0)
 9  Cc1ccccc1Cn1c(C)c(C(=O)NCc2cccc(C(F)(F)F)c2)sc1=O   no (0)
10      O=C(Nc1cccc(C(=O)N2CCCC2)c1)c1ccccc1  yes (1)
11  CC(C)OC(=O)C(C#N)c1nc2ccccc2nc1N1CCN(Cc2ccccc2)CC1 (stereo unspecified)   no (0)
12                            CCCSc1nsc(N)n1  yes (1)
13  O=C(CN1CCOCC1)N/N=C/c1ccc(-c2ccc(Br)cc2)o1   no (0)
14  CC(=O)c1ccc(S(=O)(=O)N2CCN(c3nc4c(C)c(C)ccc4cc3C#N)CC2)cc1   no (0)
15  CC(=O)c1ccc(-c2cnc3c(NC=O)cc(-c4cccc(NS(C)(=O)=O)c4)cn23)cc1   no (0)
16  CN1CCN(C(=O)c2ccc(NC(=O)c3ccc(Br)o3)cc2)CC1   no (0)
17  Cc1cc(Br)cn2c(Cc3ccsc3)c(-c3ccc(C#N)cc3)nc12   no (0)
18  COCCNC(=O)c1ccc2nc(Cc3ccc(OC)c(OC)c3)oc2c1   no (0)
19  COc1ccc(-n2c(C)cc(C(=O)CSc3nnc(-c4cccs4)o3)c2C)cc1  yes (1)
20  CCCC(=O)N1CCC1(C)C(=O)NCc1ccc(SC)cc1 (stereo unspecified)   no (0)
21  CCCCn1nnnc1C(c1ccccc1)N1CCN(c2ccccc2OC)CC1 (stereo unspecified)   no (0)
22  Nc1cccc(-c2cncc(N3CCN(Cc4ccccn4)CC3)n2)c1   no (0)
23  CCc1nc2ccc(C(=O)NC3CCN(Cc4ccccc4)CC3)cn2c1N(CC)CCOC   no (0)
24  CCOC(=O)c1c(C)c(C(=O)NCCc2ccc(S(N)(=O)=O)cc2)c(C)n1CC  yes (1)
25  NS(=O)(=O)c1ccc(CCNC(=O)c2ccc(Cl)c(S(=O)(=O)N3CCCCCC3)c2)cc1   no (0)
26  CC1(Oc2ccc(Cl)cc2)CCN(Cc2csc3ccccc23)C1 (stereo unspecified)   no (0)
27    CCOC(=O)CN(C(=O)CN1CCOCC1)c1ccc(Br)cc1  yes (1)
28  CCOC(=O)[C@H]1Nc2ccc(Cl)cc2[C@@H]2[C@H]1C1CC(c3ccccc31)N2C(=O)OCc1ccccc1 (stereo partly specified)   no (0)
29  COC(=O)c1c(C)[nH]c(C(=O)NCCc2ccc(S(N)(=O)=O)cc2)c1C   no (0)
30  CCCCn1c(N)c(N(CC)C(=O)/C=C/c2ccco2)c(=O)[nH]c1=O   no (0)
